Entry source: the Kinase Knowledgebase extract (Sharma et al. 2016)

studySystem: MAPK14 (human) (UniProt Q16539)
Sequence (Q16539 whole entry, looked up): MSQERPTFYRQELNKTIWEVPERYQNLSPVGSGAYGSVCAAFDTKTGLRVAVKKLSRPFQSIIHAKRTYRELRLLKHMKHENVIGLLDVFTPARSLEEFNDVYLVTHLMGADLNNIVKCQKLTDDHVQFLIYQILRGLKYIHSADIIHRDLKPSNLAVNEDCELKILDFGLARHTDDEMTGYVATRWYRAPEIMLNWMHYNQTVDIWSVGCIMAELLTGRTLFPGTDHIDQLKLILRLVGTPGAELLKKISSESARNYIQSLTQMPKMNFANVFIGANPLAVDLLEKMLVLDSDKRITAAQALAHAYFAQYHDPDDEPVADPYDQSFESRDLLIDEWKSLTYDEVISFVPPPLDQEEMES
experimentalProtocol: Inhibition of LPS Stimulated TNF Production by U937 Cells
pIC50: −log10 of the molar value.
recordedEndpoint: pIC50

Example entries and their recorded answers appear below.
CCCCS(=O)(=O)NCc1[nH]nc(-c2ccc(F)cc2)c1-c1ccncc1: 5.30
O=C(NCc1[nH]nc(-c2ccc(F)cc2)c1-c1ccncc1)c1ccc(F)c(F)c1F: 5.49
COc1cccc(-c2[nH]nc(C)c2-c2ccncc2)c1: 6.32
Cc1n[nH]c(-c2ccccc2)c1-c1ccncc1: 6.24
COc1cccc(CC(=O)N2CCC(c3[nH]nc(-c4ccc(F)cc4)c3-c3ccncc3)CC2)c1: 6.11

A. OCCn1cc(-c2ccncc2)c(-c2ccc(F)cc2)n1
B. CC(C)=CC(=O)NCc1[nH]nc(-c2ccc(F)cc2)c1-c1ccncc1
Which value of pIC50 is smaller, the one for A or the one for B ? Label of pick, please.
B
(B: 4.96, A: 6.70)
